Biological target: GRK2 (Bos taurus, UniProt P21146, S670A)
Construct: made in house
Sequence (P21146 1-689 S670A): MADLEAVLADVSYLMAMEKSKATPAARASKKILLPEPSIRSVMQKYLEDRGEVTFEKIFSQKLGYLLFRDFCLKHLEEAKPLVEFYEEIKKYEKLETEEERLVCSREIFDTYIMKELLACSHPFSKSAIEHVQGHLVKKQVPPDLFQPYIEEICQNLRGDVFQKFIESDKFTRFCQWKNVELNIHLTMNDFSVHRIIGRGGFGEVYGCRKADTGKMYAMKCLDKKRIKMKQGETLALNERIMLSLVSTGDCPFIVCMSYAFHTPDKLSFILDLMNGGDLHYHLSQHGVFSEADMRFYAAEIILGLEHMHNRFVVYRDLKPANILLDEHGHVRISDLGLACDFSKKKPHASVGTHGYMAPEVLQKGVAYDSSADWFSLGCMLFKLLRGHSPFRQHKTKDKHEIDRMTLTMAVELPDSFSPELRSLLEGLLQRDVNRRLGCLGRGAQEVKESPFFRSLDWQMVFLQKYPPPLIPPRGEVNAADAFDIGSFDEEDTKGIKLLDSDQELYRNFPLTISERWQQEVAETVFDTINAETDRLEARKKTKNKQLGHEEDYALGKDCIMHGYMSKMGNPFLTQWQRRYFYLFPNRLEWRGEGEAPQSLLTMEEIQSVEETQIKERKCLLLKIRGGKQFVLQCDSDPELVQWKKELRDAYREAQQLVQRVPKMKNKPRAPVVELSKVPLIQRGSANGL
Experiment: In vitro phosphorylation assay (tubulin, 5 μM ATP), GRK2
Type: biochemical, bovine
Details: relative to paroxetine
# if measured GRK2 fold (increase in potency relative to paroxetine) < 0.06 fold: 1.0  # else: 0.0

Exercise: I wonder whether CC1=C(C(=O)Nc2cc(Cl)c3[nH]ncc3c2)C(c2ccc(C(F)(F)F)cc2)CC(=O)N1 (centres unmarked) [GSK466317A] has GRK2 fold (increase in potency relative to paroxetine) below 0.06 fold. Can you tell?
Key: 1.0

Exercise: Given the entry Fc1cccc(COc2ccc(Nc3ncnc4cc(-c5ccc[nH]5)sc34)cc2Cl)c1 [GW693881A] , would its reported GRK2 fold (increase in potency relative to paroxetine) be below 0.06 fold?
Key: 1.0

Exercise: Report whether reported GRK2 fold (increase in potency relative to paroxetine) is lower than 0.06 fold (strictly) for CC1=C(C(=O)Nc2ccc3[nH]ncc3c2)C(c2ccc3ccccc3c2)CC(=O)N1 (centres unmarked) [GSK270822A]
Key: 0.0

Exercise: Please state whether GRK2 fold (increase in potency relative to paroxetine) is below 0.06 fold for CC1=C(C(=O)Nc2ccc3[nH]ncc3c2)C(c2ccc(F)cc2)NC(c2ccc(C(F)(F)F)nc2)=N1 (centres unmarked) [GSK317354A]
Key: 0.0

Exercise: Given the entry CCn1c(-c2nonc2N)nc2c(C#CC(C)(C)O)nc(O[C@@H](CN)c3ccccc3)cc21 [GSK1007102B] , would its reported GRK2 fold (increase in potency relative to paroxetine) be below 0.06 fold?
Key: 0.0

Exercise: # strict comparison: is reported GRK2 fold (increase in potency relative to paroxetine) < 0.06 fold? input = CC1=C(C(=O)Nc2ccc3[nH]ncc3c2)C(c2ccc(Cl)c(Cl)c2)CC(=O)N1 (centres unmarked) [GSK299115A]
Key: 0.0

Exercise: Input COc1cc2c(cc1Nc1nc(Nc3ccsc3C(N)=O)c3cc[nH]c3n1)N(C(=O)CN(C)C)CCC2 [GSK2110236A] ; condition: GRK2 fold (increase in potency relative to paroxetine) strictly below 0.06 fold. Does it hold?
Key: 0.0

Exercise: Decide: GRK2 fold (increase in potency relative to paroxetine) of CNC(=O)c1ncccc1Nc1nc(Nc2cc3c(cc2OC)CCCN3C(=O)CN(C)C)nc2[nH]ccc12 [GSK2220400A] strictly below 0.06 fold?
Key: 1.0

Source of measurements: paper PMC4301037
